Test: protein stability index of a GFP-peptide fusion (GPS, HEK-293T) (PSI 1-6); higher = more stable;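 further: 24-mer peptide tiles fused after GFP, lentivirally expressed, FACS-sorted into six equal bins by GFP/DsRed ratio, decoded by Illumina sequencing, PSI is the read-weighted mean bin number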
Details: treatment: DMSO; c terminus: a fixed tail appended

{"residueSequence": "GRGAFGEVRLVQKKDTGHIYAMKI [STK38L]", "protein stability index": 2.09}
{"residueSequence": "VSSVFLLTLSIAFICCAQVKVSHL [PHTF1]", "protein stability index": 3.57}
{"residueSequence": "QDLIEDLKLARKAYHDPMLKLSIM [NET1]", "protein stability index": 2.33}
{"residueSequence": "GGDLMPAPADPTAREGLAAPPRRL [FCHO1]", "protein stability index": 5.19}
{"residueSequence": "MVERRGPGRPRTDGENVFTGQSKI [KMT5A]", "protein stability index": 4.19}
{"residueSequence": "DVARQLGKNNEFSRLVAGEYLSFF [PSD2]", "protein stability index": 2.26}
{"residueSequence": "PGFSSLSLSDQMSVLQSVWMEVLV [ESRRA]", "protein stability index": 2.38}
{"residueSequence": "GLFRKSGVKSRIQALRQMNEGAID [DLC1]", "protein stability index": 3.36}
{"residueSequence": "THFTFKDLHFKMFDVGGQRSERKK [GNAI1]", "protein stability index": 2.83}
{"residueSequence": "VVWNAQTGEKLLELNGHTQKITAI [WDR41]", "protein stability index": 2.19}
{"residueSequence": "ASVATWAIFVHRVGQPSIGGKLSP [CTBP1-DT]", "protein stability index": 2.65}
{"residueSequence": "MERPQPDSMPQDLSEALKEATKEV [HMOX1]", "protein stability index": 5.44}
{"residueSequence": "HSIINALKAKLQMTEAALALSEQK [LRRC45]", "protein stability index": 2.63}

----------
Test: protein stability index of a GFP-peptide fusion (GPS, HEK-293T) (PSI 1-6); higher = more stable
Settings: treatment: DMSO; c terminus: a fixed tail appended

{"residueSequence": "PPGIPPLMPGVPPLMPGMPPVMPG [ZNF207]", "protein stability index": 3.9}
{"residueSequence": "DSMPQDLSEALKEATKEVHTQAEN [HMOX1]", "protein stability index": 5.39}
{"residueSequence": "HMVSDGSWVVRVQAAKLLGSMEQV [INTS4]", "protein stability index": 2.48}
{"residueSequence": "DVHDDVRLLSDATVEKDESHAGKV [FAM50A]", "protein stability index": 5.52}
{"residueSequence": "PTPSTPRPTPQDWLHRRAQILEIL [ADAMTS4]", "protein stability index": 2.97}
{"residueSequence": "SRIKVLETSYQQREERLRRENEEL [FBF1]", "protein stability index": 4.9}
{"residueSequence": "DLLHNVSQNIAAETRAEDPPWFEG [DFFB]", "protein stability index": 3.75}
{"residueSequence": "WKFPVPVLKTSRSTPLSPAYISLV [KLHL13]", "protein stability index": 2.48}
{"residueSequence": "EKDNSRRMLTDKEREMAEIRDQMQ [LMNB1]", "protein stability index": 5.3}
{"residueSequence": "PNCLSMGSRCLKTFEVPEENTAET [ZBED1]", "protein stability index": 4.89}
{"residueSequence": "EDGEKAAREVKLLLLGAGESGKST [GNAI1]", "protein stability index": 4.78}
{"residueSequence": "AAIFKIYLSCLEELMKCQIIYPRQ [TRIP13]", "protein stability index": 3.08}
{"residueSequence": "EALLDRESENASLREKLRLREAEI [LRRC45]", "protein stability index": 4.77}
{"residueSequence": "EETIASLQMEVCRLKKEEEDRIVT [CEP70]", "protein stability index": 4.65}
{"residueSequence": "APSPGVKEQAIWKHPQPAPAVTPD [PKD2L1]", "protein stability index": 5.15}
{"residueSequence": "TVAIGAESEVYSWGKGARGRLGRR [NEK8]", "protein stability index": 4.08}
{"residueSequence": "QYMNEGELRVLADTYDSVYLHPNS [HDAC6]", "protein stability index": 2.83}
{"residueSequence": "NQACKLLSDDYEQVRSAAVQLIWV [INTS4]", "protein stability index": 2.62}
{"residueSequence": "WIQFNHPYTEKPRLWHTACASDEG [KLHDC2]", "protein stability index": 2.28}
{"residueSequence": "IGSTSESKDWEEVVVESMEQDRIP [MIA2]", "protein stability index": 5.08}
{"residueSequence": "TQVLEDSEDSFCRRHPGLGKAFPS [TRAF3IP2]", "protein stability index": 4.17}
{"residueSequence": "SIKMGKRNGLHLPEQVQNEIKSMK [NLN]", "protein stability index": 4.02}
{"residueSequence": "HKPLLICSCEWMAAMFGGSFVESA [RHOBTB1]", "protein stability index": 2.72}
{"residueSequence": "VLAIIAREGDCAPEEKIWEELSVL [MAGEA3]", "protein stability index": 2.62}
{"residueSequence": "YWKLQIFFTNVIQALGEHLKLRQQ [CCNC]", "protein stability index": 2.66}
{"residueSequence": "MDAAPGVDLSRILNEMRDQYEKMA [KRT17]", "protein stability index": 3.82}
{"residueSequence": "ICARACNTTLTQYQLLATHVPTVW [RHOBTB1]", "protein stability index": 2.52}
{"residueSequence": "PRCKTTKYRNPSLKLMVNVCGHTL [MNAT1]", "protein stability index": 2.39}
{"residueSequence": "SLGVPGSVGGVPGGTGSGDGNKIF [ZBTB22]", "protein stability index": 4.38}
{"residueSequence": "SEQLVNFTGKAEMGGPFSYVYFFC [TMEM106C]", "protein stability index": 2.69}
{"residueSequence": "GVRVNNRFELINIDDLEDDPVVNG [TCF25]", "protein stability index": 4.41}
{"residueSequence": "ENNMLQPETHIFTAPEEVPKVSDQ [DMRTC1]", "protein stability index": 5.57}
{"residueSequence": "FHPIKETVVEEPVDITPYLDQLDE [INTS3]", "protein stability index": 3.98}
{"residueSequence": "FRDEKDYPASTSQDSFEAAGNSTS [KCNA3]", "protein stability index": 5.55}
{"residueSequence": "REEQCAAYNHRTDLFKSFPGPMDW [ADAMTS4]", "protein stability index": 3.06}
{"residueSequence": "PGEPNNAGNNEHCGNIKAPSLQAW [CD207]", "protein stability index": 4.38}
{"residueSequence": "PECTRCGHGIVGTIVKARDKLYHP [PDLIM4]", "protein stability index": 2.35}
{"residueSequence": "YFFPVIFSKASDSLQLVFGIELME [MAGEA6]", "protein stability index": 3}
{"residueSequence": "SPSCPEEALAATWEQPWASEVFGP [PXN]", "protein stability index": 3.62}
{"residueSequence": "SSHLQSSKAGPTRIFTSNTHSSVV [KLHL13]", "protein stability index": 3.52}
{"residueSequence": "TGQPLPQSIQQAMRYLRNHCLDQV [DLC1]", "protein stability index": 2.36}
{"residueSequence": "FIYDMCGSNYANFELDLGKKVLNL [PTPN9]", "protein stability index": 3.01}
{"residueSequence": "SEARLSQRDLSPTAEDAELSDFEE [FCHSD1]", "protein stability index": 5.44}
{"residueSequence": "NYTSRVWEYSSSIQNSDNDLPVVQ [TRIM29]", "protein stability index": 3.88}
{"residueSequence": "LFILSTLVVDYIDEGRLVLEFSLL [SOAT1]", "protein stability index": 3.28}
{"residueSequence": "TEDELRVRHLEEENRGIVVLGINR [AUH]", "protein stability index": 4.29}
{"residueSequence": "TFLKAFPLMGETQERERVLTHFSR [PSD2]", "protein stability index": 2.45}
{"residueSequence": "ALVCQVDNDHKEAVGKMGFVVTML [ZER1]", "protein stability index": 2.29}
{"residueSequence": "SPESGLEVRDRMLLKITIPNAFIG [DVL3]", "protein stability index": 2.3}
{"residueSequence": "LCMDWCKDKRRIVSSSQDGKVIVW [GNB5]", "protein stability index": 2.17}
{"residueSequence": "SSAIEVIMLRSNESFTMDDMSWTC [VDR]", "protein stability index": 2.6}
